- Tested on: UO-31 renal
- Procedure details: NCI-60 one-dose screen, 48 h (100 = growth as untreated, 0 = no growth, -100 = all killed)
- Study conditions: 10 µM unless noted
About 83,000 compounds went through this panel and 20% of them were active in at least one assay; those are over-represented in the sample as a whole.
Endpoint label: growth (%)
Numbers only here, please. The scale is %.

Notebook entry, UO-31 renal assay: growth of Cc1nn(-c2nc3ccccc3[nH]2)c2c1C(c1ccc(OCC(N)=O)cc1)CC(=O)N2 (stereo not given) = ?
81.9

Return growth measured with UO-31 renal given this compound: CC(C)c1ccc(S(=O)(=O)NC(=O)NC2CCCC2)cc1
95.4

For the record CC(=O)O[C@@H]1/C=C/C(=O)N[C@@H](C)CCC/C=C/[C@@H]2CCC[C@H]21 , what value of growth is listed for UO-31 renal?
93.7

Tell me reported growth for Cc1ccc(NCCNCC(O)CO)c2c(=O)c3ccccc3sc12 (stereo not given) , tested with UO-31 renal.
-24

// map CCCCN1CCN(c2ccc3nc(-c4ccc5nc(-c6ccc(OCC)cc6)[nH]c5c4)[nH]c3c2)CC1 to recorded growth (system: UO-31 renal)
100

----------
- Test system: M14 melanoma
- Procedure details: NCI-60 one-dose screen, 48 h (100 = growth as untreated, 0 = no growth, -100 = all killed)
- Study conditions: 10 µM unless noted
The panel holds about 83,000 compounds, 20% with a hit somewhere; the sample as a whole holds those more often.
Assignment: determine reported growth for the given molecules.
Numbers only; they are read as %.

Quick check: growth of COc1ccc(/C=C2\SC(=Nc3ccccc3)NC2=O)cc1 ?
-79.8

Endpoint output: growth of COc1ccc(C)c2sc(N(Cc3cccnc3)C(=O)c3ccc(C#N)cc3)nc12 . Value?
4.95

Recorded growth of Cc1[nH]c2ccccc2c(=O)c1CC=C(Cl)Cl , please.
72.7

# query: growth of entry COc1ccc(-c2nsc3c2NC(=O)CC3c2ccc3c(c2)OCCO3)cc1 (stereo unspecified)
19.7

Reported growth for O=C(NC1CCN(Cc2ccccc2)CC1)c1cc2nc(-c3ccc(Cl)s3)cc(C(F)(F)F)n2n1 : what is it?
48.7

Item O=C(Nc1ccc(Cl)cc1F)c1cc(F)ccc1O has what recorded growth?
2.92

Which value of growth has been reported for COc1cc(/C=C2\CCC/C(=C\c3cc(CN4CCCCC4)c(O)c(OC)c3)C2=O)cc(CN2CCCCC2)c1O in the records?
99

Entry O=C1/C(=C/c2cccc(O)c2)COc2ccc(O)cc21 : reported growth = ?
85.3

For the molecule COc1ccc(C2C3=C(COC3=O)N(CCO)c3cc4c(cc32)OCCO4)cc1 (stereo unspecified) , what growth is on record?
77.7

# input molecule: Nc1ccc(-c2ccc(-c3ccccc3N)c3[nH]c4ccccc4c23)cc1 ; wanted: its growth
6.58

What does the record list as growth for CCCCNc1nc(NC(C)(C)C)nc(NC(C)(C)C)n1 ?
57.5

----------
- System: HOP-92 NSCLC
- Procedure details: NCI-60 one-dose screen, 48 h (100 = growth as untreated, 0 = no growth, -100 = all killed)
- Study conditions: 10 µM unless noted
About 83,000 compounds went through this panel and 20% of them were active in at least one assay; those are over-represented in the sample as a whole.
Endpoint label: growth (%)
Number in %, nothing else.

Could you tell me which growth is on file for CCN1C(=O)N(CC)C2C1NN=c1s/c(=C3\C(=O)N(C(C)C)c4ccccc43)c(=O)n12 (stereo not given) ?
54

What does the data say about its growth? Entry: CNCCNc1nc2ccccc2c2c(=O)c3cc(OC)ccc3sc12
23.9

// query growth value for entry O=C(CN1C=NC2C(N3CCOCC3)=NC=NC21)c1cccc2ccccc12 (stereo not given)
90.2

Entry Cc1cccc2c(=O)c3c(sc12)c(NCCCNCCO)nc1ccccc13 : reported growth = ?
29.4

Given the molecule CC(=O)c1ccc(NC(=O)Nc2ccc(S(=O)(=O)Nc3ccc(Cl)nn3)cc2)cc1 , what is its reported growth?
106

----------
- Tested on: 786-0 renal
- Procedure details: NCI-60 one-dose screen, 48 h (100 = growth as untreated, 0 = no growth, -100 = all killed)
- Study conditions: 10 µM unless noted
This is part of a sample that, as a whole, favours compounds with a hit. Of some 83,000 tested, about 20% had one in any assay. Calls of active or inactive are those of the source. How the source made its calls: active means growth percent below 10; inactive means the rest.
Endpoint label: growth

Param readout = growth; param system = 786-0 renal; param query = COc1ccc(/C=C2\CCC/C(=C\c3ccc(OC)c(OC)c3)C2=O)cc1OC ; response: value
0.0865% (active)

// map Nc1n[nH]c2ccc([C@@H]3Nc4ccc5[nH]ncc5c4[C@H]4[C@H]5CCC(C5)[C@H]43)cc12 to recorded growth (system: 786-0 renal)
24.1% (inactive)

What value of growth on 786-0 renal does COc1ccc(Cn2c(Br)c3c(c2Br)-c2nc(NC(=O)c4ccc(OC)cc4)sc2CC3)cc1 have?
61.8% (inactive)

Please state recorded growth (tested on 786-0 renal) of CC(=O)c1ccc2oc(=O)n(Cc3ccc(C#N)cc3)c(=O)c2c1
103% (inactive)

Param readout = growth; param system = 786-0 renal; param query = O=C(N=Nc1c(O)[nH]c2ccccc12)c1oc2ccccc2c1CN1CCN(c2ccccc2)CC1 ; response: value
-83.2% (active)

Tell me reported growth for Cc1cccc2c(=O)c3c(sc12)c(NCCCNCCO)nc1ccccc13 , tested with 786-0 renal.
52.8% (inactive)

Checklist item: growth tested on 786-0 renal, entry O=C(N/N=C/c1ccccc1O)C(=O)Nc1ccc(F)cc1 , value?
53.8% (inactive)

GET /values?readout=growth&system=786-0 renal&item= CCCCCCc1cc2cc(-c3csc(/C=C/c4ccccc4)n3)c(=O)oc2cc1O
30.1% (inactive)

Give 786-0 renal growth for COc1ccc2sc3c(NCCCN)nc4ccccc4c3c(=O)c2c1
42.3% (inactive)

Lookup: growth / 786-0 renal / CCOC(=O)c1c2c(n3cccc(Cl)c13)C(=O)c1ncccc1C2=O
73.9% (inactive)

----------
- Tested on: HCC-2998 colon
- Procedure details: NCI-60 one-dose screen, 48 h
- Study conditions: 10 µM unless noted
This is part of a sample that, as a whole, favours compounds with a hit. Of some 83,000 tested, about 20% had one in any assay. Activity calls are given as the source filed them. The calls were made as follows: active = growth percent below 10; inactive = the rest.
Could you please pick one outcome from this set? Yes = active, No = inactive

Can you look up the reported call for O=C(/C=C/c1ccccn1)c1ccc(OCc2nnc(-c3ccc(Cl)cc3)o2)cc1 for me?
No

What is the recorded call for this molecule in the test? CCN1C(=O)N(c2ccccc2)C2NN=c3s/c(=C4\C(=O)N(C(C)C)c5ccccc54)c(=O)n3C21 (stereo not given)
No

Would you mind telling me which call this test gave CCN(CC)c1cc(C)c2cc(NC(=O)c3cccc(OC)c3)ccc2n1 ?
No

Lab log entry: O=Nc1c(O)ccc2ccccc12.O=Nc1c(O)ccc2ccccc12.O=Nc1c([O-])ccc2ccccc12.[Fe+3] — outcome as called in the assay?
No

I'd appreciate the recorded outcome for COC(=O)C1=C(C)NC(C)=C(C(=O)OC)C(N2C(=O)CCC2=O)C1 (stereo not given) from this test.
No

Hi, sorry to bother you, what did the test record for CCOc1cc2c(cc1OCC)C(c1cc(C)c(O)c(C)c1)NCC2 (stereo not given) ?
No

Please indicate how the test categorized COc1c(B(O)O)cccc1-c1nc2ccc3[nH]ncc3c2c2c1C1CCC2C1 (stereo not given) .
No

GET /call?item= COc1cc(C(=O)O/N=C(\N)Cc2cccc3ccccc23)cc(OC)c1OC returns the recorded outcome of this test.
Yes

Recorded call for Cn1nc(C(F)(F)F)c(-c2ccc(Cl)c(C(F)(F)F)c2)c1-c1ccc(OCc2ccc(Cl)cc2)cc1O ?
No

Per the records of this test, what outcome belongs to Cc1cccc2c(=O)c3c(sc12)c(N1CCNCC1)nc1ccccc13 ?
No

Recorded call for Nc1ccc(-c2ccc(-c3ccccc3N)c3[nH]c4ccccc4c23)cc1 ?
No

Any idea what this test logged for Oc1c(C(Nc2ccccn2)c2cccc(Oc3ccccc3)c2)ccc2cccnc12 (stereo not given) ?
Yes

Hello, I am checking results. What call was entered for COc1ccc(-c2nsc3c2NC(=O)CC3c2ccc3c(c2)OCCO3)cc1 (stereo not given) ?
No

Can you look up the reported call for COc1ccc(C2Nc3nc(OC)n(C)c(=O)c3N=C3c4ccccc4C(=O)C32)cc1 (stereo not given) for me?
No

GET /call?item= COC(=O)/C(CCC=C(C)C)=C1\[C@@H](OC(C)=O)C[C@@]2(C)[C@H]1C[C@@H](O)[C@H]1[C@@]3(C)CC[C@H](NCCCNCCCCNCCCN)[C@@H](C)[C@@H]3CC[C@@]12C returns the recorded outcome of this test.
No

Look up the recorded call for CCCCC(O)(c1ccc(Cl)cc1)C(CN1CCOCC1)c1ccc(Cl)cc1 (stereo not given) in this test.
No

Check the results log: what was the call for COc1ccccc1C(=O)/C=C/c1ccccc1 ?
No

Hey, what did the test say about C=CCN1C(=O)/C(=c2\sc3n(c2=O)NC2C(N=3)N(CC)C(=O)N2CC)c2ccccc21 (stereo not given) ?
No

Hey, what did the test say about O=C(Nc1ccc(F)cc1F)c1cc(Cl)ccc1O ?
No

For O=c1oc2ccc(Br)cc2c(=O)n1-c1ccc(I)cc1F , what call appears in the results of this test?
No
